Value source: the supplement of paper PMC6555819

Exercise: state measured PBM binding z-score for each of the sequences provided.
System: PPARg DBDmut:RXRa IVT, anti-PPARg (DBD mutation: PPARg1 K132A/R137A, NR concentration 270 nM, RXRa partner concentration 90 nM)
Experiment: PBM binding z-score (relative to random genomic background probes); higher = stronger binding; sequences stand for … in GC…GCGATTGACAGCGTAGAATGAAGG
Please state the value as a number alone, without comment.

### Prompt For "ACTAGCAGGCCAAAGGTCACTCAAGATTAGTCCG" , what is its reported PBM binding z-score?
### Response -0.0674

### Prompt For "CGTCCAAGGTCAATGCTAGGCCAGTGAAAGCATT" , what is its reported PBM binding z-score?
### Response -0.61

### Prompt For "CCTTACGGGTCAGGAGGTTATAGCACGACGAGCG" , what is its reported PBM binding z-score?
### Response 0.0175

### Prompt For "TAGCCTAGGTCATTCAGGGGTCAGTATAGAAAGC" , what is its reported PBM binding z-score?
### Response 1.25

### Prompt For "CTAACTAGGTCAAGGTCAAAGTCGGTTTGTGCCA" , what is its reported PBM binding z-score?
### Response 2.1

### Prompt For "CACACTAGGTCAAAGGTCAAAGTCGAGCCAACCA" , what is its reported PBM binding z-score?
### Response 5.62

### Prompt For "GCTGCTAGGTCGACTGATGGTCAGCTAAAGCTCG" , what is its reported PBM binding z-score?
### Response -1.49

### Prompt For "CGAACTAGTTCAAGGACAGTGAATCTCCGCACGC" , what is its reported PBM binding z-score?
### Response -0.635

### Prompt For "CCTGCTAGGTCAATGGTCAGCTCAAGCAGCTCGC" , what is its reported PBM binding z-score?
### Response 2.6

### Prompt For "CTAACTAGGTCACCGGAAGGTCAAAGTCCGCATG" , what is its reported PBM binding z-score?
### Response 3.69

### Prompt For "CCTAGCAGGCCAGGGTCACCCAAGCATTTCGCTT" , what is its reported PBM binding z-score?
### Response -0.767

### Prompt For "GATACAGGGTCAATGCCAGAGTACGCGTATTGAT" , what is its reported PBM binding z-score?
### Response 0.722

### Prompt For "CCTAGCAGGCCAGGTTCACTCAAGCATTTCGCTT" , what is its reported PBM binding z-score?
### Response -1.77

### Prompt For "AGTCCAAGTTCACTAGGTAACGTAAGATTCAGCT" , what is its reported PBM binding z-score?
### Response 1.01

### Prompt For "CTCCAAAGGTCGGTTGAGGTGAGTATACGGATAA" , what is its reported PBM binding z-score?
### Response 0.267

### Prompt For "GCTTACGGGTCAAAGGTTATGGCATGAATAGAAT" , what is its reported PBM binding z-score?
### Response 1.49

### Prompt For "AGAATGAGGTTAAGATTAGGGAAACAGAATACAT" , what is its reported PBM binding z-score?
### Response 0.926

### Prompt For "TAGCCTAAGTCATGGGCCAGTATACCACGCGAAC" , what is its reported PBM binding z-score?
### Response -0.174

### Prompt For "CGTCCAAGGTCAAAGGTCAGTAAAGAGATGACGG" , what is its reported PBM binding z-score?
### Response 0.533

### Prompt For "TCTAGTTGGTCATGGAGGTCACACACGACGGGTA" , what is its reported PBM binding z-score?
### Response 1.39
